target: ePL-tagged GSPT1 (Homo sapiens, UniProt P15170+Q96SW2); construct: expressed in transfected cells; host or cells: DF15 multiple myeloma cells; test: GSPT1 DiscoverX Degradation Assay; format: cell-based; conditions: DF15 multiple myeloma cells expressing ePL-tagged GSPT1; twenty hours; minimum of percent of control curve (Ataluren control Y constant=0, DMSO control = Y max)
Sequence (P15170 whole entry): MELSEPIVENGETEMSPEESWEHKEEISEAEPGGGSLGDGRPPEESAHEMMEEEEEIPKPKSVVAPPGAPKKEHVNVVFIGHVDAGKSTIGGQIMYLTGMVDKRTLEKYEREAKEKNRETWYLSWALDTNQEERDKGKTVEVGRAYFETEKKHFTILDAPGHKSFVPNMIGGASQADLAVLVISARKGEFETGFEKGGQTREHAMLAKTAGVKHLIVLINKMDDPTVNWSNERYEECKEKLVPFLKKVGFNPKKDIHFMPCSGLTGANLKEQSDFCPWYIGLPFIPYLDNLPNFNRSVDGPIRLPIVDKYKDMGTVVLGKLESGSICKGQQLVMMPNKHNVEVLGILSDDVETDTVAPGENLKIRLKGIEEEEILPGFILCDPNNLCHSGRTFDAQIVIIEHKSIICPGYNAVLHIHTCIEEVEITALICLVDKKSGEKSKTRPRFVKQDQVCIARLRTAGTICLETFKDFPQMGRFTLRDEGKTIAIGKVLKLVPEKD
Sequence (Q96SW2 whole entry): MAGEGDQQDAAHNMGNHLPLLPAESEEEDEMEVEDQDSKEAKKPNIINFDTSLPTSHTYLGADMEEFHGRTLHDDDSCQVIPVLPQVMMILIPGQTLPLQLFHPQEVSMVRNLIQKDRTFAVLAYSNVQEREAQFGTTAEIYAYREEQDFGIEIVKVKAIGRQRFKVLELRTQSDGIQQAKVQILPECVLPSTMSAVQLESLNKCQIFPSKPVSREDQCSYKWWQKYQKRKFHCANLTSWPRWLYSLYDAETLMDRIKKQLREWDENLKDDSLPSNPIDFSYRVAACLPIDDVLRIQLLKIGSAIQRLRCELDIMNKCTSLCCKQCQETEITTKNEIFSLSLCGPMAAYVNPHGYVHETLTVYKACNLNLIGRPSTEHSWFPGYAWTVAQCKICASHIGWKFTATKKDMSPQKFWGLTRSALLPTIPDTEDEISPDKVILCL
Sequence (Q16531 whole entry partner): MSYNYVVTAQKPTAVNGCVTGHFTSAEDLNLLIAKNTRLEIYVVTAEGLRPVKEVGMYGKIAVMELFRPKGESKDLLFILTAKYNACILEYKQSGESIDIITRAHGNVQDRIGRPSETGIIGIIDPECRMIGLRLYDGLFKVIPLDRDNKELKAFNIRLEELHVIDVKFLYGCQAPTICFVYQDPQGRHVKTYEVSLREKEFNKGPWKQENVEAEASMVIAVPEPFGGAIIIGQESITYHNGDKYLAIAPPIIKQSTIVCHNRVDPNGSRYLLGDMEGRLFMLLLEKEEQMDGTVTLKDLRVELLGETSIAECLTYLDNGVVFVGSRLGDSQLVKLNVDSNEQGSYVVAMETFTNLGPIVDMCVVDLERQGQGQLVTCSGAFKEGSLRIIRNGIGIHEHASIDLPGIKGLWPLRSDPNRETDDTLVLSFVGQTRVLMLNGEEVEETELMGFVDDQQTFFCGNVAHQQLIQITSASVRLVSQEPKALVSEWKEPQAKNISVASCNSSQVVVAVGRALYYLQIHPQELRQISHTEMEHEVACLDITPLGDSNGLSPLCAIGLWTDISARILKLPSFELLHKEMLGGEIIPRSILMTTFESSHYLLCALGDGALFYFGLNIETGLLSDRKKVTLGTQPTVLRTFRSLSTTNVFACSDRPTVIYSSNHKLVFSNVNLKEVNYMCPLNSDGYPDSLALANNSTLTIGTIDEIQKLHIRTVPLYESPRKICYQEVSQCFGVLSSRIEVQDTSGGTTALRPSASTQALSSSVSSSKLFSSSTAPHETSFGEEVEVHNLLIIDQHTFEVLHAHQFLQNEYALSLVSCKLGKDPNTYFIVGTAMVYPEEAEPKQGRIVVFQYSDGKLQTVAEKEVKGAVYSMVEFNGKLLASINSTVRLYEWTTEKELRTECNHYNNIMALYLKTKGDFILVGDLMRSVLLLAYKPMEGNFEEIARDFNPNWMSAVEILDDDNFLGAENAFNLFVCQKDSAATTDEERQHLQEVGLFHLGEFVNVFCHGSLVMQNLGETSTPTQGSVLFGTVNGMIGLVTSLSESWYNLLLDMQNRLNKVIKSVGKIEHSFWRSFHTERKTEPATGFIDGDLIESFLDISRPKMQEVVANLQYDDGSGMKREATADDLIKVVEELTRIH
Measured endpoint: GSPT1 Degradation Ymin

• NCc1ccc(COc2ccc(NC(=O)NCc3ccc4c(c3)CN(C3CCC(=O)NC3=O)C4=O)cc2)c(C2CC2)c1 (stereo not drawn) = 6.15
• NCc1ccc(COc2ccc(NC(=O)NCc3ccc4c(c3)CN(C3CCC(=O)NC3=O)C4=O)cc2)nc1 (stereo not drawn) = 6.75
• NCc1ccc(COc2ccc(NC(=O)NCc3ccc4c(c3)CN(C3CCC(=O)NC3=O)C4=O)cc2)cc1 (stereo not drawn) = 4.34
• COc1cc(CN)ccc1COc1ccc(NC(=O)NCc2ccc3c(c2)CN(C2CCC(=O)NC2=O)C3=O)cc1 (stereo not drawn) = 8.85
• NCc1ccc(COc2ccc(NC(=O)NCc3ccc4c(c3)CN(C3CCC(=O)NC3=O)C4=O)cc2Cl)cc1 (stereo not drawn) = 16.88
• NCc1ccc(COc2ccc(NC(=O)NCc3ccc4c(c3)CN(C3CCC(=O)NC3=O)C4=O)nn2)cc1 (stereo not drawn) = 6.55
• O=C1CCC(N2Cc3cc(CNC(=O)Nc4ccc(OCc5ccccc5)cc4)ccc3C2=O)C(=O)N1 (stereo not drawn) = 3.00
• O=C1CCC(N2Cc3cc(CNC(=O)Nc4ccc(OCc5ccccc5O)cc4)ccc3C2=O)C(=O)N1 (stereo not drawn) [Example 10] = 4.00
• C[C@]1(N2Cc3cc(CNC(=O)Nc4ccc(OCc5ccc(CN)cc5)cc4)ccc3C2=O)CCC(=O)NC1=O = 22.76
• NCc1ccc(COc2ccc(NC(=O)NCc3ccc4c(c3)CN(C3CCC(=O)NC3=O)C4=O)cc2)c(Cl)c1 (stereo not drawn) = 5.50
• NCc1ccc(COc2ccc(NC(=O)NCc3ccc4c(c3)CN(C3CCC(=O)NC3=O)C4=O)cc2)cn1 (stereo not drawn) = 5.83
• C[C@@]1(N2Cc3cc(CNC(=O)Nc4ccc(OCc5ccc(CN)cc5)cc4)ccc3C2=O)CCC(=O)NC1=O = 60.95
• Nc1cccc(COc2ccc(NC(=O)NCc3ccc4c(c3)CN(C3CCC(=O)NC3=O)C4=O)cc2)c1 (stereo not drawn) = 3.00
• O=C1CCC(N2Cc3cc(CNC(=O)Nc4ccc(OCc5ccc(CO)cc5)cc4)ccc3C2=O)C(=O)N1 (stereo not drawn) = 3.00
• NCc1ccc(COc2ccc(NC(=O)NCc3ccc4c(c3)CN(C3CCC(=O)NC3=O)C4=O)cc2)c(OC(F)F)c1 (stereo not drawn) = 7.07
